Biological target: T1, pancreatic elastase (EC 3.4.21.36) (UniProt P00772 27-266)
T1 construct: also called elastase-1; source: bought: Sigma-Aldrich
T1 sequence (P00772 27-266): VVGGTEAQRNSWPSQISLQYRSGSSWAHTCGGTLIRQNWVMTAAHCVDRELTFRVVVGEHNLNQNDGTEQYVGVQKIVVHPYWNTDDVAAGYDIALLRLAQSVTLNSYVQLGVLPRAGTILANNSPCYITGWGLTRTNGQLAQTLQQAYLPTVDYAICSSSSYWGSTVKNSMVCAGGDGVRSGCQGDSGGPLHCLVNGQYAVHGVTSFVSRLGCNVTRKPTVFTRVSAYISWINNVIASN
Assay: enzyme inhibition kinetics (fluorimetric, Dixon plot); elastase-1 (100 ng) with the FRET substrate Abz-FRSSRQ-EDDnp at 3.4 and 6.8 µM, purified peptide at 0.63 and 0.94 µM; Tris 50 mM, NaCl 50 mM, pH 8.0, 37 °C; duplicates; mechanism found uncompetitive
Conditions: both partners purified
result-type: Ki

[[record]]
binder = "Kunitz-type serine protease inhibitor homolog dendrotoxin I (also called Kunitz-type peptide; Kunitz peptide) QPLRKLCILHRNPGRCYQKIPAFYYNQKKKQCEGFTWSGCGGNSNRFKTIEECRRTCIRK"
reported = "8 µM"

